Can you tell me IP for the items I'm about to list?
- Species: Rattus norvegicus
- Procedure details: Open TG-GATES - Regimen: Daily Repeat
- Assay type: toxicity, organism-based, Sprague-Dawley
- Parameters: regimen Daily Repeat, gender Male, age 6 weeks
- Recorded conditions: in vivo, po, 0 mg/kg, […], tissue Plasma, route gavage, dose level Control, time 28 day
Answers are plain numbers, in mg/dL.

Worked cases, answers included:
Compound	IP (mg/dL)
COc1ccc2c(c1)c(CC(=O)O)c(C)n2C(=O)c1ccc(Cl)cc1	7.5
COc1ccc(Cc2nccc3cc(OC)c(OC)cc23)cc1OC	6.2
O=C(O)c1cn(C2CC2)c2cc(N3CCNCC3)c(F)cc2c1=O	7
CN(C)CCC=C1c2ccccc2CCc2ccccc21	6.3
Clc1ccccc1CN1CCc2sccc2C1	6.7

For each listed entry, give its IP.
1. CCCC(CCC)C(=O)O
2. Cn1c(=O)c2[nH]cnc2n(C)c1=O.O
3. O=C(O)c1cc(/N=N/c2ccc(S(=O)(=O)Nc3ccccn3)cc2)ccc1O
4. NC(=O)N/N=C/c1ccc([N+](=O)[O-])o1
5. CSc1ccc2c(c1)N(CCC1CCCCN1C)c1ccccc1S2 (stereo not given)
6. NC(=O)N1c2ccccc2C=Cc2ccccc21 [CARBAMAZEPINE]
7. C[C@H](CS)C(=O)N1CCC[C@H]1C(=O)O

output:
1: 6.9; 2: 6.5; 3: 6.1; 4: 6.9; 5: 6.7; 6: 6.7; 7: 7.7

For each listed entry, give its IP.
1. CC(=O)Oc1ccccc1C(=O)O
2. CCc1cc(C(N)=S)ccn1 [ETHIONAMIDE]
3. CO[C@H]1/C=C/O[C@@]2(C)Oc3c(C)c(O)c4c(O)c(c(/C=N/N5CCN(C)CC5)c(O)c4c3C2=O)NC(=O)/C(C)=C\C=C\[C@H](C)[C@H](O)[C@@H](C)[C@@H](O)[C@@H](C)[C@H](OC(C)=O)[C@@H]1C

output:
1: 6.3; 2: 6; 3: 7.2

* * *

Can you tell me GLC for the items I'm about to list?
- Organism: Rattus norvegicus
- Procedure details: Open TG-GATES - Regimen: Single
- Type: toxicity, organism-based, Sprague-Dawley
- Parameters: regimen Single, gender Male, age 6 weeks
- Recorded conditions: in vivo, po, 100 mg/kg, 6 h, tissue Plasma, route gavage, dose level Low
One number for each entry, in mg/dL.

Worked cases, answers included:
Molecule	Reading unit	GLC
O=C(O)c1cc(/N=N/c2ccc(S(=O)(=O)Nc3ccccn3)cc2)ccc1O [SULFASALAZINE]	mg/dL	193.6
C[C@H](CS)C(=O)N1CCC[C@H]1C(=O)O [CAPTOPRIL]	mg/dL	192.4
CCc1cc(C(N)=S)ccn1 [ETHIONAMIDE]	mg/dL	187.4
O=C(O)c1cn(C2CC2)c2cc(N3CCNCC3)c(F)cc2c1=O [CIPROFLOXACIN]	mg/dL	182.4

Continue with the next molecule.
input: For the molecule shown here, Clc1ccccc1CN1CCc2sccc2C1 [TICLOPIDINE] , give the reported GLC.
output: 189

* * *

Can you tell me MCV for the items I'm about to list?
- Organism: Rattus norvegicus
- Procedure details: Open TG-GATES - Regimen: Single
- Assay type: toxicity, organism-based, Sprague-Dawley
- Parameters: regimen Single, gender Male, age 6 weeks
- Recorded conditions: in vivo, po, 1000 mg/kg, 3 h, tissue Blood, route gavage, dose level High
Numbers only, in fL.

Molecule	Reading unit	MCV
O=C(O)c1cn(C2CC2)c2cc(N3CCNCC3)c(F)cc2c1=O [CIPROFLOXACIN]	fL	65.5
O=C(O)c1cc(/N=N/c2ccc(S(=O)(=O)Nc3ccccn3)cc2)ccc1O [SULFASALAZINE]	fL	62.4
C[C@H](CS)C(=O)N1CCC[C@H]1C(=O)O [CAPTOPRIL]	fL	65.9
CCc1cc(C(N)=S)ccn1 [ETHIONAMIDE]	fL	63.5

Continue with the next molecule.
input: For the molecule shown here, Clc1ccccc1CN1CCc2sccc2C1 [TICLOPIDINE] , give the reported MCV.
output: 60.7

* * *

Can you tell me Neu for the items I'm about to list?
- Organism: Rattus norvegicus
- Procedure details: Open TG-GATES - Regimen: Daily Repeat
- Type: toxicity, organism-based, Sprague-Dawley
- Set-up: regimen Daily Repeat, gender Male, age 6 weeks
- Recorded conditions: in vivo, po, 0 mg/kg, […], tissue Blood, route gavage, dose level Control, time 7 day
One number for each entry, in %.

Worked cases, answers included:
Compound	Neu, %
Cn1c(=O)c2[nH]cnc2n(C)c1=O.O [THEOPHYLLINE]	17.4
CCCC(CCC)C(=O)O [VALPROIC ACID]	12.4
CC(=O)Oc1ccccc1C(=O)O [ASPIRIN]	11
CCc1cc(C(N)=S)ccn1 [ETHIONAMIDE]	13
O=C(O)c1cc(/N=N/c2ccc(S(=O)(=O)Nc3ccccn3)cc2)ccc1O [SULFASALAZINE]	14.2
Clc1ccccc1CN1CCc2sccc2C1 [TICLOPIDINE]	13.4

For each listed entry, give its Neu.
1. NC(=O)N/N=C/c1ccc([N+](=O)[O-])o1 [NITROFURAZONE]
2. C[C@H](CS)C(=O)N1CCC[C@H]1C(=O)O [CAPTOPRIL]
3. COc1ccc2c(c1)c(CC(=O)O)c(C)n2C(=O)c1ccc(Cl)cc1 [INDOMETHACIN]

output:
1. 20.2
2. 12.4
3. 10

* * *

- Organism: Rattus norvegicus
- Procedure details: Open TG-GATES - Regimen: Single
- Format: toxicity, organism-based, Sprague-Dawley
- Parameters: regimen Single, gender Male, age 6 weeks
- Recorded conditions: in vivo, po, 0 mg/kg, 9 h, tissue Plasma, route gavage, dose level Control
Property label: DBIL
Your answer should be a number followed by the unit of measure.

Compound	Result
NC(=O)N/N=C/c1ccc([N+](=O)[O-])o1	0.012 mg/dL
Cn1c(=O)c2[nH]cnc2n(C)c1=O.O	0 mg/dL
Clc1ccccc1CN1CCc2sccc2C1	0.072 mg/dL
NC(=O)N1c2ccccc2C=Cc2ccccc21 [CARBAMAZEPINE]	0.07 mg/dL
CSc1ccc2c(c1)N(CCC1CCCCN1C)c1ccccc1S2 (configuration not stated)	0.034 mg/dL
C[C@H](CS)C(=O)N1CCC[C@H]1C(=O)O	0.078 mg/dL
CN(C)CCC=C1c2ccccc2CCc2ccccc21	0.01 mg/dL
O=C(O)c1cn(C2CC2)c2cc(N3CCNCC3)c(F)cc2c1=O	0.056 mg/dL
CC(=O)Oc1ccccc1C(=O)O	0.066 mg/dL
CCc1cc(C(N)=S)ccn1 [ETHIONAMIDE]	0.024 mg/dL

For each listed entry, give its DBIL.
1. O=C(O)c1cc(/N=N/c2ccc(S(=O)(=O)Nc3ccccn3)cc2)ccc1O
2. COc1ccc(Cc2nccc3cc(OC)c(OC)cc23)cc1OC

output:
0.078 mg/dL
0 mg/dL

* * *

- Organism: Rattus norvegicus
- Procedure details: Open TG-GATES - Regimen: Single
- Assay type: toxicity, organism-based, Sprague-Dawley
- Set-up: regimen Single, gender Male, age 6 weeks
- Recorded conditions: in vivo, po, 100 mg/kg, 24 h, tissue Liver, route gavage, dose level Low
Property label: LIVER (g)
Answers are plain numbers, in g.

Worked cases, answers included:
Compound	LIVER, g
O=C(O)c1cc(/N=N/c2ccc(S(=O)(=O)Nc3ccccn3)cc2)ccc1O	10.5
Clc1ccccc1CN1CCc2sccc2C1	10.1
O=C(O)c1cn(C2CC2)c2cc(N3CCNCC3)c(F)cc2c1=O	8
CCc1cc(C(N)=S)ccn1 [ETHIONAMIDE]	11.7

Continue with the next compound.
input: For the compound shown here, C[C@H](CS)C(=O)N1CCC[C@H]1C(=O)O , give the reported LIVER.
output: 11.3

* * *

Can you tell me TBIL for the items I'm about to list?
- Species: Rattus norvegicus
- Procedure details: Open TG-GATES - Regimen: Single
- Format: toxicity, organism-based, Sprague-Dawley
- Design: regimen Single, gender Male, age 6 weeks
- Recorded conditions: in vivo, po, 0 mg/kg, 3 h, tissue Plasma, route gavage, dose level Control
Answers are plain numbers, in mg/dL.

Molecule	Readout number
CC(=O)Oc1ccccc1C(=O)O	0.1
NC(=O)N/N=C/c1ccc([N+](=O)[O-])o1	0.056
O=C(O)c1cn(C2CC2)c2cc(N3CCNCC3)c(F)cc2c1=O	0.4
CCc1cc(C(N)=S)ccn1 [ETHIONAMIDE]	0.3
C[C@H](CS)C(=O)N1CCC[C@H]1C(=O)O	0.4

For each listed entry, give its TBIL.
1. NC(=O)N1c2ccccc2C=Cc2ccccc21 [CARBAMAZEPINE]
2. CN(C)CCC=C1c2ccccc2CCc2ccccc21
3. Clc1ccccc1CN1CCc2sccc2C1
4. CSc1ccc2c(c1)N(CCC1CCCCN1C)c1ccccc1S2 (configuration not stated)
5. Cn1c(=O)c2[nH]cnc2n(C)c1=O.O

output:
[0.1, 0.062, 0.1, 0.3, 0.018]

For each listed entry, give its TBIL.
1. O=C(O)c1cc(/N=N/c2ccc(S(=O)(=O)Nc3ccccn3)cc2)ccc1O
2. COc1ccc(Cc2nccc3cc(OC)c(OC)cc23)cc1OC

output:
1. 0.1
2. 0.01
